Target: CYP3A4 (Homo sapiens (Human))
Experiment: Cytochrome P450 inhibition in human liver microsomes, CYP3A4
Conditions: read-out: 3A4 IC50 (Testosterone), substrate testosterone, Protocol 1
pIC50: −log10 of the molar value.

compound: Cl.O=C(OCC12CCN(CC1)CC2)c1c[nH]c2cc(F)c(F)cc12 [Compound 51, hydrochloride]
pIC50: < 5.00
--
compound: COc1cc(Br)c2c(C(=O)OCC34CCN(CC3)CC4)c[nH]c2c1
pIC50: < 5.00
--
compound: Cc1c(F)ccc2[nH]cc(C(=O)OCC34CCN(CC3)CC4)c12
pIC50: < 5.00

* * *

pIC50 reference
Molecular target: CYP3A4 (Homo sapiens (Human), UniProt P08684)
Sequence (P08684 whole entry): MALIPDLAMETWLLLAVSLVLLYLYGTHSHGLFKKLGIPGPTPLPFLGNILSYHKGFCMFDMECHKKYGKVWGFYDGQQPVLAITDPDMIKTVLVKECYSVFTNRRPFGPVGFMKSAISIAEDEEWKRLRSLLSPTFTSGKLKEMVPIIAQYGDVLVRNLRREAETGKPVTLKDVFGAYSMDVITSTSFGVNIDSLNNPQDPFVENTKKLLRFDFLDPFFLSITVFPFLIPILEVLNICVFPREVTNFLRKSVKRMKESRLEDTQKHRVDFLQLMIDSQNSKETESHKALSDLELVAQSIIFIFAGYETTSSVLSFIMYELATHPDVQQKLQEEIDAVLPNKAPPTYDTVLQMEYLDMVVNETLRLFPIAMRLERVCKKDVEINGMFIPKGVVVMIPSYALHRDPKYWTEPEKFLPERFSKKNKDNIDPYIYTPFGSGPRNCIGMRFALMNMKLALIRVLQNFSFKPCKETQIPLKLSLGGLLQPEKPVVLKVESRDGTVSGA
Experiment: Cytochrome P450 inhibition in human liver microsomes, CYP3A4
Settings: read-out: 3A4 IC50 (Testosterone), substrate testosterone, Protocol 1
pIC50: −log10 of the molar value.

compound: Cl.O=C(OCC12CCN(CC1)CC2)c1c[nH]c2cc(O)c(F)cc12 [Compound 59, hydrochloride]
pIC50: < 5.00
--
compound: COc1cc2c(C(=O)OCC34CCN(CC3)CC4)c[nH]c2cc1F [Compound 57]
pIC50: < 5.00
--
compound: Cl.O=C(OCC12CCN(CC1)CC2)c1c[nH]c2cc(Cl)c(F)cc12 [Compound 52, hydrochloride]
pIC50: < 5.00
--
compound: COc1ccc2[nH]cc(C(=O)OCC34CCN(CC3)CC4)c2c1OC [Compound 40]
pIC50: < 5.00
--
compound: Cc1ccc2c(C(=O)OCC34CCN(CC3)CC4)c[nH]c2c1.Cl [Compound 45, hydrochloride]
pIC50: < 5.00
--
compound: Cc1cc(F)cc2[nH]cc(C(=O)OCC34CCN(CC3)CC4)c12 [Compound 44]
pIC50: < 5.00
--
compound: O=C(OCC12CCN(CC1)CC2)c1c[nH]c2cc(O)cc(Br)c12 [Compound 53]
pIC50: < 5.00
--
compound: COc1ccc2[nH]cc(C(=O)OCC34CCN(CC3)CC4)c2c1Cl [Compound 39]
pIC50: < 5.00
